measurement name: melting point (°C)

Here is how some molecules turned out for melting point.
O=C(NC(Cc1ccccc1)C(=O)O)c1ccc2cc(OCc3cccc(O)c3)ccc2c1 (stereo not shown) [Example 1-85]; 157
O=C(NC(Cc1ccccc1)C(=O)O)c1ccc2cc(OCc3cccc(Br)c3)ccc2c1 (stereo not shown) [Example 1-52]; 194
COc1ccccc1COc1ccc2cc(C(=O)NC(Cc3ccccc3)C(=O)O)ccc2c1 (stereo not shown) [Example 1-29]; 169
O=C(NC(Cc1ccccc1)C(=O)O)c1ccc2cc(OCc3cccc(OC(F)(F)F)c3)ccc2c1 (stereo not shown) [Example 1-36]; 157
O=C(NC(Cc1ccccc1)C(=O)O)c1ccc2cc(OCCc3ccncc3)ccc2c1 (stereo not shown) [Example 1-83]; 190

a. CC(C)COc1cccc(COc2ccc3cc(C(=O)NC(Cc4ccccc4)C(=O)O)ccc3c2)c1 (stereo not shown) [Example 1-93]
b. O=C(NC(Cc1ccccc1)C(=O)O)c1ccc2cc(OCc3cccc(Cl)c3Cl)ccc2c1 (stereo not shown) [Example 1-33]
Task for the reader: decide whether a or b has the larger melting point. Respond with the label that goes with your answer.
b
